TARGET OR TEST SYSTEM: RAC-alpha serine/threonine-protein kinase (Homo sapiens)
ASSAY DETAILS: Inhibition of Akt1 (1 to 480) expressed in Sf9 cells using biotin-GRPRTSSFAEG as substrate after 20 mins by Alpha-screen assay
REPORTED PROPERTY: IC50 (nM)

Nc1ncccc1-c1nc2ccc(-c3cccnc3)nc2n1-c1ccc(CC(=O)Nc2ccccc2)cc1 ... 50

P: CC(=O)Nc1ccc(-n2c(-c3cccnc3N)nc3cccnc32)cc1
Q: COc1ccccc1Cn1c(-c2cccnc2N)nc2cccnc21
For the pair P and Q , which entry has the numerically smaller recorded IC50? Output the label that corresponds to your choice.
P
(P: 1300 nM, Q: 58000 nM)

a: Nc1ccc(-n2c(-c3cccnc3N)nc3cccnc32)cc1
b: NCc1ccc(-n2c(-c3cccnc3)nc3cccnc32)cc1
c: Nc1ncccc1-c1nc2ccc(-c3cccnc3)nc2n1-c1ccc(CNC(=O)c2cccc(F)c2)cc1
d: Nc1ncccc1-c1nc2cc(Br)cnc2n1-c1ccc(CNC(=O)c2ccccc2)cc1
e: Nc1ncccc1-c1nc2cc(C3CCCC3)cnc2n1-c1ccc(CNC(=O)c2ccccc2)cc1
Kindly order the items shown according to IC50, from the highest value down. Form entry: ranked labels (order as requested).
b, a, e, c, d
(b: 8800 nM, a: 740 nM, e: 110 nM, c: 47 nM, d: 27 nM)

1: Nc1ncccc1-c1nc2ccc(-c3ccccc3)nc2n1-c1ccc(CNC(=O)c2ccccc2)cc1
2: Nc1ncccc1-c1nc2cc(-c3cccnc3)cnc2n1-c1ccc(CNC(=O)c2ccccc2)cc1
When their IC50 values are compared, which is larger, 1 or 2 ? Output the label that corresponds to your choice.
1
(1: 24 nM, 2: 8 nM)

====

pIC50: −log10 of the molar value.
Consider the following pIC50 values measured on Cytochrome P450 2D6 (Homo sapiens, UniProt P10635).
Sequence (P10635 whole entry): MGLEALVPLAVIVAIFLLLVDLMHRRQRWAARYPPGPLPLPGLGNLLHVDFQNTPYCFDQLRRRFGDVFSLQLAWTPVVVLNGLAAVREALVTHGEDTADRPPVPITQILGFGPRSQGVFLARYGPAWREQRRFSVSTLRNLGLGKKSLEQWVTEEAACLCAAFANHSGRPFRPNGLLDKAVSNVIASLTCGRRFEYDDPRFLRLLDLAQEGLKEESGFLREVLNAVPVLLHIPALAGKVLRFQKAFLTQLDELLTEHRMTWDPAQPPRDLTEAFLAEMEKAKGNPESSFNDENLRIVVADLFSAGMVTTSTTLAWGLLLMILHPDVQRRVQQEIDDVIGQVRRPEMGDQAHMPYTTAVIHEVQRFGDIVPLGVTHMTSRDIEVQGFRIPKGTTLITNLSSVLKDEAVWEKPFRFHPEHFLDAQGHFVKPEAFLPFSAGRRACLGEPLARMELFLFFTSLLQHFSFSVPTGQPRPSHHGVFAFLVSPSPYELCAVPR

CC(=O)Nc1cccc(-c2ccc3nc(-c4cccnc4N)n(-c4ccc(CNC(=O)c5cccc(F)c5)cc4)c3n2)c1 ... < 5.00

Continue with the next compound.
Report pIC50 for Nc1ncccc1-c1nc2cccnc2n1-c1ccc(CNC(=O)c2ccccc2)cc1 tested on Cytochrome P450 2D6 (Homo sapiens, UniProt P10635).
< 5.00

====

TARGET OR TEST SYSTEM: RAC-alpha serine/threonine-protein kinase (Homo sapiens)
EXPERIMENTAL SETUP: Sf9
REPORTED PROPERTY: ΔTm (°C)

Known results for compounds:
CC(=O)NCc1ccc(-n2c(-c3cccnc3N)nc3cccnc32)cc1 ... 2.3
Nc1ncccc1-c1nc2cccnc2n1-c1ccc(CNC(=O)c2ccccc2)cc1 ... 6.4
Nc1ncccc1-c1nc2cc(-c3ccccc3)cnc2n1-c1ccc(CNC(=O)c2ccccc2)cc1 ... 5.61

P: Nc1ncccc1-c1nc2ccc(-c3cccnc3)nc2n1-c1ccc(CC(=O)Nc2ccccc2)cc1
Q: Nc1ncccc1-c1nc2cccnc2n1-c1ccc(NC(=O)c2ccccc2)cc1
When their ΔTm values are compared, which is larger, P or Q ? Output the label that corresponds to your choice.
P
(P: 10.8 °C, Q: 7.3 °C)

====

TARGET OR TEST SYSTEM: RAC-alpha serine/threonine-protein kinase (Homo sapiens, UniProt P31749)
Sequence (P31749 whole entry): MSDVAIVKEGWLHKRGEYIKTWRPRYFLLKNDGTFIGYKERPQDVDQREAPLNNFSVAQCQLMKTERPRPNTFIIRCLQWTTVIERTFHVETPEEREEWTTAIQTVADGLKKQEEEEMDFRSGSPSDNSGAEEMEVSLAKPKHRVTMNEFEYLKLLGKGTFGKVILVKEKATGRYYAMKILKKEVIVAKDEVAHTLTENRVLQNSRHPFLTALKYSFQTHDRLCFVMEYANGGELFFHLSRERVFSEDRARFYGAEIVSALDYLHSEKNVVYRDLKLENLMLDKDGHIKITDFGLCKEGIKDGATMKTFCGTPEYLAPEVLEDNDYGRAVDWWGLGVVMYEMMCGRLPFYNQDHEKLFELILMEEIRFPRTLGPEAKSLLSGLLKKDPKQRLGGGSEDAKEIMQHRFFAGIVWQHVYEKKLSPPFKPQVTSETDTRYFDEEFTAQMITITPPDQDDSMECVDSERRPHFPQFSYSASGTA
EXPERIMENTAL SETUP: Sf9
REPORTED PROPERTY: ΔTm (°C)

Known results for molecules:
Nc1ncccc1-c1nc2cc(-c3cccnc3)cnc2n1-c1ccc(CNC(=O)c2cccc(F)c2)cc1 ... 9.4
CC(=O)Nc1ccc(-n2c(-c3cccnc3N)nc3cccnc32)cc1 ... 3.7
Nc1ncccc1-c1nc2cccnc2n1-c1ccc(CNCc2ccccc2)cc1 ... 4.9

1: Nc1ncccc1-c1nc2cc(C3CCCC3)cnc2n1-c1ccc(CNC(=O)c2ccccc2)cc1
2: CC(C)(C)c1ccc(-n2c(-c3cccnc3N)nc3cc(Br)cnc32)cc1
3: CC(C)(C)c1ccc(-n2c(-c3cccnc3N)nc3cccnc32)cc1
4: Nc1ncccc1-c1nc2ccc(-c3ccccc3)nc2n1-c1ccc(CNC(=O)c2ccccc2)cc1
5: Nc1ccc(-n2c(-c3cccnc3N)nc3cccnc32)cc1
Kindly order the items shown according to ΔTm, from the highest value down. Form entry: ranked labels (order as requested).
4, 1, 5, 3, 2

Values compiled from ChEMBL document CHEMBL2176970.
